Test system: DU145
procedure-summary: Euclidean distance of Cell Painting phenotypic profile (signed KS, 77 features) to DMSO centroid (dimensionless distance); 5 or 10 uM (library dependent); higher = stronger phenotypic change vs DMSO (phenoactivity)
condition-description: 48 h
Structures can show the parent of a compound that is named as a salt.
Kindly state Euclidean distance for each of the entries shown.
Quick one: just the number, no unit, thanks!

Asked: Please report the recorded Euclidean distance for Cc1nc(Nc2ncc(C(=O)Nc3c(C)cccc3Cl)s2)cc(N2CCN(CCO)CC2)n1 [Dasatinib hydrochloride] .
Given back: 4.71

Asked: Data request, read-out Euclidean distance, for C[C@@H](c1ncncc1F)[C@](O)(Cn1cncn1)c1ccc(F)cc1F [Voriconazole]
Given back: 0.9

Asked: Look up Euclidean distance for this compound: CN1CCC(OC(c2ccccc2)c2ccccc2)CC1 [Diphenylpyraline hydrochloride]
Given back: 2.19

Asked: Fill in: Euclidean distance of CN1[C@@H]2CC[C@H]1C[C@@H](OC(c1ccccc1)c1ccccc1)C2 [Benztropine mesylate] is ___
Given back: 1.51

Asked: Recorded Euclidean distance for C=C1CC[C@H](O)C/C1=C/C=C1\CCC[C@]2(C)[C@@H]([C@H](C)/C=C/[C@H](C)C(C)C)CC[C@@H]12 [Vitamin D2] , please?
Given back: 5.76

Asked: Query (compound): Cc1cc(C(C)(C)C)cc(C)c1CC1=NCCN1 [Xylometazoline HCl] ; field requested: Euclidean distance
Given back: 0.707

Asked: Quick one: Euclidean distance for O=C(O)/C=C/c1ccc(O)cc1 [p-Coumaric Acid] ?
Given back: 0.894

Asked: Fill in: Euclidean distance of Nc1nc(Nc2ccc(S(N)(=O)=O)cc2)nn1C(=O)c1c(F)cccc1F is ___
Given back: 1.5

Data origin, for the record: the supplement of paper PMC10127200
